TARGET_OF_ASSAY: recombinant human GM-CSF protein (human, UniProt P04141 18-144)
Sequence (P04141 18-144): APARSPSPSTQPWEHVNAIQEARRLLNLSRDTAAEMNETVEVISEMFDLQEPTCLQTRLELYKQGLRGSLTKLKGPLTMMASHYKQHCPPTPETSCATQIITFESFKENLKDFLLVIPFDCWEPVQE
ASSAY_METHOD_TEXT: ELISA
# EC50 values compiled below
Value and unit, in that order.

INPUT: // lookup EC50 for Hu50C5-2 (antibody, V domains shown) VH: EVQLVQSGAEVKKPGSSVKVSCKASGGTFSPYSIHWVRQAPGQGLEWMGYINPSTGYIEYNQHFKDRVTITADKSTSTAYMELRSLRSEDTAVYYCARGGDYEGYFDYWGQGTTVTVSS VL: DIQMTQSPSSLSASVGDRVTITCRLNENIYSFLAWYQQKPGKAPKLLVYNAETLAEGVPSRFSGSGSGTDFTLTISSLQPEDFATYYCQQHYGTPYTFGGGTKVEIK
OUTPUT: 2.19 nM

INPUT: Look at this binder and give its reported EC50. Hu50C5-13 (antibody, V domains shown) VH: EVQLVQSGAEVKKPGSSVKVSCKASGYIFSPYSIHWVRQAPGQGLEWIGYINPSTGYIEYNQHFKDRVTITADKSTSTAYMELRSLRSEDTAVYYCARGGDYEGYFDYWGQGTTVTVSS VL: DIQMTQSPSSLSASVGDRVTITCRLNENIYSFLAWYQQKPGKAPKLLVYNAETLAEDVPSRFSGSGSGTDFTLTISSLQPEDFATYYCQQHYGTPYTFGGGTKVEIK
OUTPUT: 3.52 nM

INPUT: // EC50 lookup, key: Hu50C5-10 (antibody, V domains shown) VH: EVQLVQSGAEVKKPGSSVKVSCKASGYIFSPYSIHWVRQAPGQGLEWMGYINPSTGYIEYNQHFKDRVTITADKSTSTAYMELRSLRSEDTAVYYCARGGDYEGYFDYWGQGTTVTVSS VL: DIQMTQSPSSLSASVGDRVTITCRLNENIYSFLAWYQQKPGKSPKLLVYNAETLAEDVPSRFSGSGSGTQFTLTISSLQPEDFATYYCQQHYGTPYTFGGGTKVEIK
OUTPUT: 1.03 nM

Where do the numbers come from? From patent US20180362632A1.
